Hey, just so you know, these numbers are from patent US20230413824A1.

- Test system: Alternaria solani
- assay: Alternaria solani test in tomato (preventive, glasshouse)
- Assay type: in vivo
- study-conditions: single compound, 0.05 ppm, preventive
So basically: Observed Efficacy (%) at 20% or higher? That is T. Lower than 20%? That is F.

molecule | assigned-category
CNC(=O)/C(=N/OC)c1ccccc1Oc1ccccc1 | T
Cn1cc(C(=O)Nc2cccc3c2[C@@H]2CC[C@H]3C2=C(Cl)Cl)c(C(F)F)n1 (racemic) | F
Cn1cc(C(=O)Nc2ccc(F)cc2-c2ccc(Cl)c(Cl)c2)c(C(F)F)n1 | F
CC1CC(C)(C)c2c(F)ccc(NC(=O)c3cn(C)nc3C(F)F)c21 (stereo not shown) | F
CO/C=C(/C(=O)OC)c1ccccc1Oc1cc(Oc2ccccc2C#N)ncn1 | T
O=[N+]([O-])c1cc(C(F)(F)F)c(Cl)c([N+](=O)[O-])c1Nc1ncc(C(F)(F)F)cc1Cl | F
